Origin of values: patent US10183014B2

- assay remarks: Ocular pharmacokinetics of formulations, Example 20-5
- Format: in vivo, Dutch Belted rabbits
- measurement conditions: Dutch Belted, rabbit, central choroid, topical, 30 μL per eye; Group 10: 2 mg/mL suspension, 50 μm particles, TRIS 0.60%, glycerol 2%, HEC 0.2%, HPMC 0.08%, Vitamin K3 1 μM, pH 6, BID for 4 days; 1 hr post dose on Day 5; read-out: Central Choroid concentration
measurement label: concentration at 1 h (nM)
Report the figure in nM without appending any unit label.

Sample Cl.NC(=O)c1c(OCc2c(F)cc(Br)cc2F)nsc1NC(=O)NCCCCN1CCCC1 [Compound-I, hydrochloride] ; concentration at 1 h observed: 116
